system: 935938-334-R-J1-PDC complex spheroid viability; assay: Anticancer human tumor 935938-334-R-J1-PDC patient-derived small intestine adenocarcinoma cell line growth inhibition [POLQ]; settings: second compound 0.0316 µM; first compound 10 µM; active compounds read low
Reported viability, T/C by item:

- compound: "C#Cc1c(F)ccc2cc(O)cc(-c3ncc4c(N5CC6CCC(C5)N6)nc(OCC56CCCN5CC(F)C6)nc4c3F)c12 (stereo not given) + Nc1ccc(C#CCN(C(=O)Cc2ncc(C(F)(F)F)cc2C(F)(F)F)c2ccc(F)cc2)nn1"
  viability, T/C: "38.4%"
- compound: "O=C(c1cc(Cc2n[nH]c(=O)c3ccccc23)ccc1F)N1CCN(C(=O)C2CC2)CC1 + COC1C(OC(N)=O)C(O)C(Oc2ccc3c(O)c(NC(=O)c4ccc(O)c(CC=C(C)C)c4)c(=O)oc3c2C)OC1(C)C"
  viability, T/C: "64.6%"
- compound: "CC1COCCN1c1cc(C2(O)CC3CCC(C2)O3)c2cnn(-c3ccn[nH]3)c2n1 (stereo not given) + COC1C(OC(N)=O)C(O)C(Oc2ccc3c(O)c(NC(=O)c4ccc(O)c(CC=C(C)C)c4)c(=O)oc3c2C)OC1(C)C"
  viability, T/C: "8.68%"
- compound: "COc1cccc2c1C(=O)c1c(O)c3c(c(O)c1C2=O)CC(O)(C(=O)CO)CC3OC1CC(N)C(O)C(C)O1 (stereo not given) + Nc1ccc(C#CCN(C(=O)Cc2ncc(C(F)(F)F)cc2C(F)(F)F)c2ccc(F)cc2)nn1"
  viability, T/C: "3.61%"
- compound: "Nc1ccn(C2OC(CO)C(O)C2(F)F)c(=O)n1 (stereo not given) + Nc1ccc(C#CCN(C(=O)Cc2ncc(C(F)(F)F)cc2C(F)(F)F)c2ccc(F)cc2)nn1"
  viability, T/C: "16.8%"

====

Reported viability, T/C by item:
tested on: 935938-334-R-J1-PDC complex spheroid viability; experiment: Anticancer human tumor 935938-334-R-J1-PDC cell line growth inhibition [POLQ]; conditions: second compound 1 µM; first compound 0.1 µM; active compounds read low;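 also: spheroids exposed to drugs for seven days before viability read; 100% = DMSO vehicle control wells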

- compound: "C=CCn1c(=O)c2cnc(Nc3ccc(N4CCN(C)CC4)cc3)nc2n1-c1cccc(C(C)(C)O)n1 + Cc1cccc(N(C)C(=O)C2C(O)CCN2c2nc(C)cc(C(F)(F)F)c2C#N)c1"
  experimental system: "935938-334-R-J1-PDC complex spheroid viability"
  result unit: "%"
  viability, T/C: 104
- compound: "COc1cc(C2c3cc4c(cc3C(OC3OC5COC(C)OC5C(O)C3O)C3COC(=O)C23)OCO4)cc(OC)c1O (stereo not given) + Cc1cccc(N(C)C(=O)C2C(O)CCN2c2nc(C)cc(C(F)(F)F)c2C#N)c1"
  experimental system: "935938-334-R-J1-PDC complex spheroid viability"
  result unit: "%"
  viability, T/C: 78
- compound: "O=C(Nc1ccc(O)c(NS(=O)(=O)c2ccc(F)cc2)c1)c1ccc(-c2ccccc2)cc1 + Nc1ccc(C#CCN(C(=O)Cc2ncc(C(F)(F)F)cc2C(F)(F)F)c2ccc(F)cc2)nn1"
  experimental system: "935938-334-R-J1-PDC complex spheroid viability"
  result unit: "%"
  viability, T/C: 105
- compound: "CNCc1ccc(-c2[nH]c3cc(F)cc4c3c2CCNC4=O)cc1 + Cc1cccc(N(C)C(=O)C2C(O)CCN2c2nc(C)cc(C(F)(F)F)c2C#N)c1"
  experimental system: "935938-334-R-J1-PDC complex spheroid viability"
  result unit: "%"
  viability, T/C: 78.6
- compound: "COc1cc(C2c3cc4c(cc3C(OC3OC5COC(C)OC5C(O)C3O)C3COC(=O)C23)OCO4)cc(OC)c1O (stereo not given) + COC1C(OC(N)=O)C(O)C(Oc2ccc3c(O)c(NC(=O)c4ccc(O)c(CC=C(C)C)c4)c(=O)oc3c2C)OC1(C)C"
  experimental system: "935938-334-R-J1-PDC complex spheroid viability"
  result unit: "%"
  viability, T/C: 126

Source of measurements: PubChem BioAssay AID1963829
